# Kd per entry
Tested on: Ct(FpL)MiniIII (chimera)
TEST NAME: filter binding
CONDITION INFO: Enzyme-specific cleavage buffer (Table S1, mostly not in material) with MgCl2 replaced by 1 mM CaCl2; 1.5 nM 33P-dsRNA, 50 ul, 1 h at room temperature …
MEASURED ENDPOINT: Kd (µM)

INSERT INTO measurements (residue_sequence, target_or_system, unit_label, value) VALUES
  ('GCUGGGAGGGAAACCUCUCUCUCUGGCC / GGCCAGAGAGAGAGGUUUCCCUCCCAGC [POS-ACCU]', 'Ct(FpL)MiniIII (chimera)', 'µM', 1.33),
  ('CCUGUCCCCCGCCGAAGUCGCUGCAAUU / AAUUGCAGCGACUUCGGCGGGGGACAGG [NEG]', 'Ct(FpL)MiniIII (chimera)', 'µM', 1.8);
